These measurements were taken from patent US7973147B2.

Test system: S. aureus Smith
protocol-text: MIC, agar plate dilution method
Format: cell-based
experimental-conditions: Staphylococcus aureus; S. aureus Smith; 37° C., 20 hours; read-out: MIC
List of MIC values.

compound	MIC
C=C(C/C=C(\C)CCC=C(C)C)CCC(C)(C)/C=C/CC/C(C)=C\COC(COP(=O)(O)OC1OC(C(N)=O)C(C)(O)C(OC(N)=O)C1OC1OC(COC2OC(CO)C(O)C(O)C2O)C(OC2OC(C)C(OC3OC(C(=O)O)C(O)C(O)C3O)C(O)C2NC(C)=O)C(O)C1NC(C)=O)C(=O)O (stereo not drawn) [K04-0144A]	1 µg/mL
CC(=O)NC[C@H]1CN(c2ccc(N3CCOCC3)c(F)c2)C(=O)O1 [linezolid, reference compound]	2 µg/mL
NCC[C@H](O)C(=O)N[C@@H]1C[C@H](N)[C@@H](O[C@H]2O[C@H](CN)CC[C@H]2N)[C@H](O)[C@H]1O[C@H]1O[C@H](CO)[C@@H](O)[C@H](N)[C@H]1O [arbekacin, reference compound]	≤ 0.25 µg/mL

* * *

System: S. aureus FDA209P
protocol-text: MIC, agar plate dilution method
Assay type: cell-based
experimental-conditions: Staphylococcus aureus; S. aureus FDA209P; 37° C., 20 hours; read-out: MIC

compound	MIC
CC(=O)NC[C@H]1CN(c2ccc(N3CCOCC3)c(F)c2)C(=O)O1 [linezolid, reference compound]	1 mg/L
C=C(C/C=C(\C)CCC=C(C)C)CCC(C)(C)/C=C/CC/C(C)=C\COC(COP(=O)(O)OC1OC(C(N)=O)C(C)(O)C(OC(N)=O)C1OC1OC(CO)C(OC2OC(C)C(OC3OC(C(=O)O)C(O)C(O)C3O)C(O)C2NC(C)=O)C(O)C1NC(C)=O)C(=O)O (centres unmarked) [K04-0144B]	2 mg/L
NCC[C@H](O)C(=O)N[C@@H]1C[C@H](N)[C@@H](O[C@H]2O[C@H](CN)CC[C@H]2N)[C@H](O)[C@H]1O[C@H]1O[C@H](CO)[C@@H](O)[C@H](N)[C@H]1O [arbekacin, reference compound]	≤ 0.25 mg/L
C=C(C/C=C(\C)CCC=C(C)C)CCC(C)(C)/C=C/CC/C(C)=C\COC(COP(=O)(O)OC1OC(C(N)=O)C(C)(O)C(OC(N)=O)C1OC1OC(COC2OC(CO)C(O)C(O)C2O)C(OC2OC(C)C(OC3OC(C(=O)O)C(O)C(O)C3O)C(O)C2NC(C)=O)C(O)C1NC(C)=O)C(=O)O (centres unmarked) [K04-0144A]	1 mg/L
C=C(C/C=C(\C)CCC=C(C)C)CCC(C)(C)/C=C/CC/C(C)=C\COC(COP(=O)(O)OC1OC(C(N)=O)C(C)(O)C(OC(N)=O)C1OC1OC(CO)C(OC2OC(C)C(OC3OC(C(N)=O)C(O)C(O)C3O)C(O)C2NC(C)=O)C(O)C1NC(C)=O)C(=O)O (centres unmarked) [K04-0144C]	1 mg/L

* * *

List of MIC values.
System: E. cloacae IFO13535
protocol-text: MIC, agar plate dilution method
Type: cell-based
experimental-conditions: Enterobacter cloacae; E. cloacae IFO13535; 37° C., 20 hours; read-out: MIC
Protocol: Assay of minimum inhibitory concentration (MIC) was performed according to the agar plate dilution method (Method of Japan Society of Chemotherapy, CHEMOTHERAPY 29, 76-79, 1981). Test organisms used were 27 types of microorganisms including clinical isolates of methicillin-resistant Staphylococcus aureus. […] After culturing at 37° C. for 20 hours, MIC was determined by macroscopically confirming the growth of microorganisms. […]

compound	rel	MIC [µg/mL]
NCC[C@H](O)C(=O)N[C@@H]1C[C@H](N)[C@@H](O[C@H]2O[C@H](CN)CC[C@H]2N)[C@H](O)[C@H]1O[C@H]1O[C@H](CO)[C@@H](O)[C@H](N)[C@H]1O [arbekacin, reference compound]	=	0.5
C=C(C/C=C(\C)CCC=C(C)C)CCC(C)(C)/C=C/CC/C(C)=C\COC(COP(=O)(O)OC1OC(C(N)=O)C(C)(O)C(OC(N)=O)C1OC1OC(CO)C(OC2OC(C)C(OC3OC(C(=O)O)C(O)C(O)C3O)C(O)C2NC(C)=O)C(O)C1NC(C)=O)C(=O)O (centres unmarked) [K04-0144B]	>	16
C=C(C/C=C(\C)CCC=C(C)C)CCC(C)(C)/C=C/CC/C(C)=C\COC(COP(=O)(O)OC1OC(C(N)=O)C(C)(O)C(OC(N)=O)C1OC1OC(CO)C(OC2OC(C)C(OC3OC(C(N)=O)C(O)C(O)C3O)C(O)C2NC(C)=O)C(O)C1NC(C)=O)C(=O)O (centres unmarked) [K04-0144C]	=	32
C=C(C/C=C(\C)CCC=C(C)C)CCC(C)(C)/C=C/CC/C(C)=C\COC(COP(=O)(O)OC1OC(C(N)=O)C(C)(O)C(OC(N)=O)C1OC1OC(COC2OC(CO)C(O)C(O)C2O)C(OC2OC(C)C(OC3OC(C(=O)O)C(O)C(O)C3O)C(O)C2NC(C)=O)C(O)C1NC(C)=O)C(=O)O (centres unmarked) [K04-0144A]	>	16
CC(=O)NC[C@H]1CN(c2ccc(N3CCOCC3)c(F)c2)C(=O)O1 [linezolid, reference compound]	>	32

* * *

System: S. marcescens IFO12648
protocol-text: MIC, agar plate dilution method
Assay type: cell-based
experimental-conditions: Serratia marcescens; S. marcescens IFO12648; 37° C., 20 hours; read-out: MIC

compound	units-symbol	rel	MIC
C=C(C/C=C(\C)CCC=C(C)C)CCC(C)(C)/C=C/CC/C(C)=C\COC(COP(=O)(O)OC1OC(C(N)=O)C(C)(O)C(OC(N)=O)C1OC1OC(COC2OC(CO)C(O)C(O)C2O)C(OC2OC(C)C(OC3OC(C(=O)O)C(O)C(O)C3O)C(O)C2NC(C)=O)C(O)C1NC(C)=O)C(=O)O (centres unmarked) [K04-0144A]	µg/mL	>	16
NCC[C@H](O)C(=O)N[C@@H]1C[C@H](N)[C@@H](O[C@H]2O[C@H](CN)CC[C@H]2N)[C@H](O)[C@H]1O[C@H]1O[C@H](CO)[C@@H](O)[C@H](N)[C@H]1O [arbekacin, reference compound]	µg/mL	=	1
C=C(C/C=C(\C)CCC=C(C)C)CCC(C)(C)/C=C/CC/C(C)=C\COC(COP(=O)(O)OC1OC(C(N)=O)C(C)(O)C(OC(N)=O)C1OC1OC(CO)C(OC2OC(C)C(OC3OC(C(=O)O)C(O)C(O)C3O)C(O)C2NC(C)=O)C(O)C1NC(C)=O)C(=O)O (centres unmarked) [K04-0144B]	µg/mL	>	16
C=C(C/C=C(\C)CCC=C(C)C)CCC(C)(C)/C=C/CC/C(C)=C\COC(COP(=O)(O)OC1OC(C(N)=O)C(C)(O)C(OC(N)=O)C1OC1OC(CO)C(OC2OC(C)C(OC3OC(C(N)=O)C(O)C(O)C3O)C(O)C2NC(C)=O)C(O)C1NC(C)=O)C(=O)O (centres unmarked) [K04-0144C]	µg/mL	=	32
CC(=O)NC[C@H]1CN(c2ccc(N3CCOCC3)c(F)c2)C(=O)O1 [linezolid, reference compound]	µg/mL	>	32

* * *

System: P. aeruginosa E-2
protocol-text: MIC, agar plate dilution method
Assay type: cell-based
experimental-conditions: Pseudomonas aeruginosa, E2; P. aeruginosa E-2; 37° C., 20 hours; read-out: MIC
List of MIC values.
measurement-label: MIC (µg/mL)

compound	measured-target	units-symbol	rel	reported-measurement
CC(=O)NC[C@H]1CN(c2ccc(N3CCOCC3)c(F)c2)C(=O)O1 [linezolid, reference compound]	P. aeruginosa E-2	µg/mL	>	32
C=C(C/C=C(\C)CCC=C(C)C)CCC(C)(C)/C=C/CC/C(C)=C\COC(COP(=O)(O)OC1OC(C(N)=O)C(C)(O)C(OC(N)=O)C1OC1OC(CO)C(OC2OC(C)C(OC3OC(C(N)=O)C(O)C(O)C3O)C(O)C2NC(C)=O)C(O)C1NC(C)=O)C(=O)O (centres unmarked) [K04-0144C]	P. aeruginosa E-2	µg/mL	=	32
C=C(C/C=C(\C)CCC=C(C)C)CCC(C)(C)/C=C/CC/C(C)=C\COC(COP(=O)(O)OC1OC(C(N)=O)C(C)(O)C(OC(N)=O)C1OC1OC(CO)C(OC2OC(C)C(OC3OC(C(=O)O)C(O)C(O)C3O)C(O)C2NC(C)=O)C(O)C1NC(C)=O)C(=O)O (centres unmarked) [K04-0144B]	P. aeruginosa E-2	µg/mL	>	16
NCC[C@H](O)C(=O)N[C@@H]1C[C@H](N)[C@@H](O[C@H]2O[C@H](CN)CC[C@H]2N)[C@H](O)[C@H]1O[C@H]1O[C@H](CO)[C@@H](O)[C@H](N)[C@H]1O [arbekacin, reference compound]	P. aeruginosa E-2	µg/mL	=	4
C=C(C/C=C(\C)CCC=C(C)C)CCC(C)(C)/C=C/CC/C(C)=C\COC(COP(=O)(O)OC1OC(C(N)=O)C(C)(O)C(OC(N)=O)C1OC1OC(COC2OC(CO)C(O)C(O)C2O)C(OC2OC(C)C(OC3OC(C(=O)O)C(O)C(O)C3O)C(O)C2NC(C)=O)C(O)C1NC(C)=O)C(=O)O (centres unmarked) [K04-0144A]	P. aeruginosa E-2	µg/mL	>	16
